Taken from patent US8785429B2.

Could you please report measured IC50 for the items listed next?
Target: JAK3 (Homo sapiens)
Construct: purchased Invitrogen
Sequence (P52333 1-1124): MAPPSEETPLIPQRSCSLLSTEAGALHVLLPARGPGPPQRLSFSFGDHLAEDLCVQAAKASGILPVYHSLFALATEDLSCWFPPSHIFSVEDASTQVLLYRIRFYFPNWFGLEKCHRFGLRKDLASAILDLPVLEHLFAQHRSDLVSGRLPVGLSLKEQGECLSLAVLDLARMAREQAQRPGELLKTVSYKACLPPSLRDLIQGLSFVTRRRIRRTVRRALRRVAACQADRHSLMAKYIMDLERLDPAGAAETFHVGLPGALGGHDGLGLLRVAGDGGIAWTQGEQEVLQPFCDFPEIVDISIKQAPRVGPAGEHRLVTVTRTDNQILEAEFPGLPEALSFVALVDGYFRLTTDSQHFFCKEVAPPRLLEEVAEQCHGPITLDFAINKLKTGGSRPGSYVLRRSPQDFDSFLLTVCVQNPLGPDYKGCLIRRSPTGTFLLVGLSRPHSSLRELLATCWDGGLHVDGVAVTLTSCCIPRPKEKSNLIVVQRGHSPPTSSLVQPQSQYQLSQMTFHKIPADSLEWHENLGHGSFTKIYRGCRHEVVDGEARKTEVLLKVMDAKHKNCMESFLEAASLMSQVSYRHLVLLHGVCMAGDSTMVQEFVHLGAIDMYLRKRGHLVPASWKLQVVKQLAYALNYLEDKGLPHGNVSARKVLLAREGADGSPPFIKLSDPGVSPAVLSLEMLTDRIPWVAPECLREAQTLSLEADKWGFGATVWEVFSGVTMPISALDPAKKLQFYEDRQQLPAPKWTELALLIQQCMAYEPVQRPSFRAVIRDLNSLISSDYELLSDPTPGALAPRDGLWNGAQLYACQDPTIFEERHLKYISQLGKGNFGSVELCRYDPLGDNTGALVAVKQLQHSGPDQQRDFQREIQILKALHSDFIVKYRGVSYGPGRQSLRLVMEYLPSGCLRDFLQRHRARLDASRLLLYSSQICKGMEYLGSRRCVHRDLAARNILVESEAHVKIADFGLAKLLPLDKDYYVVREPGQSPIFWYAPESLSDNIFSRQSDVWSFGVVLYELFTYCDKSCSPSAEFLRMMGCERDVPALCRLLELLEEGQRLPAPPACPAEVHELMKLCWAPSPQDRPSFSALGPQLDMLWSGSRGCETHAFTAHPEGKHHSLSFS
Assay: Assay for JAK3 Inhibition (phosphorylation of FAM-labeled substrate, Caliper LC-3000)
Type: biochemical
Settings: −log10(IC50), IC50 is the molar concentration at 50% inhibition; read-out: JAK3 pIC50 (converted)
Answers are plain numbers, in nM.

// below: answered compounds
INSERT INTO assay_data (compound, target, u, numeric_result) VALUES
  ('CC[C@H](C(=O)NCC1CCCO1)N1Cc2ccnc3[nH]cc(c23)C1=O (some centres unmarked)', 'JAK3 (Homo sapiens)', 'nM', 794),
  ('CC(C)[C@H](C(=O)NC1CCS(=O)(=O)C1)N1Cc2c(F)cnc3[nH]cc(c23)C1=O (some centres unmarked)', 'JAK3 (Homo sapiens)', 'nM', 63.1),
  ('CC(C)(C)[C@H](C(=O)NCCC#N)N1Cc2c(Cl)cnc3[nH]cc(c23)C1=O', 'JAK3 (Homo sapiens)', 'nM', 50.1),
  ('CC(C)[C@H](C(=O)Nc1cccc(C#N)c1)N1Cc2c(Cl)cnc3[nH]cc(c23)C1=O', 'JAK3 (Homo sapiens)', 'nM', 126),
  ('CC[C@H](CC#N)NC(=O)[C@@H](C(C)C)N1Cc2c(Cl)cnc3[nH]cc(c23)C1=O', 'JAK3 (Homo sapiens)', 'nM', 31.6),
  ('CC[C@H](C(=O)NCC1CC1)N1Cc2ccnc3[nH]cc(c23)C1=O', 'JAK3 (Homo sapiens)', 'nM', 3980),
  ('CC(C)[C@H](C(=O)N1CCS(=O)(=O)CC1)N1Cc2c(F)cnc3[nH]cc(c23)C1=O', 'JAK3 (Homo sapiens)', 'nM', 251),
  ('CC(C)[C@H](C(=O)N1CCCC1)N1Cc2ccnc3[nH]cc(c23)C1=O', 'JAK3 (Homo sapiens)', 'nM', 79.4),
  ('CC[C@H](C(=O)N1CCN(C)CC1)N1Cc2ccnc3[nH]cc(c23)C1=O', 'JAK3 (Homo sapiens)', 'nM', 1000),
  ('CC[C@H](C(=O)N1CCC(c2ccc(F)cc2)C1)N1Cc2ccnc3[nH]cc(c23)C1=O (some centres unmarked)', 'JAK3 (Homo sapiens)', 'nM', 316);

Batch request: IC50 per item, same order as input.
1. CC[C@H](C(=O)N1CCCC(C)C1)N1Cc2ccnc3[nH]cc(c23)C1=O (some centres unmarked)
2. CC(C#N)NC(=O)[C@@H](C(C)C)N1Cc2c(F)cnc3[nH]cc(c23)C1=O (some centres unmarked)
3. CC(C)[C@H](C(=O)N1CC(C#N)C1)N1Cc2c(F)cnc3[nH]cc(c23)C1=O
4. CC(C)[C@H](C(=O)NOCC1CC1)N1Cc2c(F)cnc3[nH]cc(c23)C1=O
5. CC(C)[C@H](C(=O)N1C[C@@H](F)C[C@H]1C#N)N1Cc2c(Cl)cnc3[nH]cc(c23)C1=O

1: 6310; 2: 31.6; 3: 6.31; 4: 100; 5: 25.1

Provide each entry's IC50 from the list below.
1. N#CCC(=O)N1CCC(N2Cc3c[nH]c4nccc(c34)C2=O)CC1
2. CC(C)(C)[C@H](C(=O)N1CC(C#N)C1)N1Cc2ccnc3[nH]cc(c23)C1=O

[1580, 2]

----------
target: JAK3 (Homo sapiens); construct: purchased Invitrogen; assay: Assay for JAK3 Inhibition (phosphorylation of FAM-labeled substrate, Caliper LC-3000); assay type: biochemical; settings: −log10(IC50), IC50 is the molar concentration at 50% inhibition; read-out: JAK3 pIC50 (converted)
MEASUREMENT TYPE: IC50 (nM)
One number for each entry, in nM.

INSERT INTO results (smiles_string, u, numeric_result) VALUES
  ('CC(C)[C@H](C(=O)N1CC(F)(F)C1)N1Cc2c(F)cnc3[nH]cc(c23)C1=O', 'nM', 63.1),
  ('CCC(=O)N1CCC(CC)(N2Cc3c[nH]c4nccc(c34)C2=O)CC1', 'nM', 50.1),
  ('CC[C@H](C(=O)N1CCC(C(C)(C)O)CC1)N1Cc2ccnc3[nH]cc(c23)C1=O', 'nM', 1580);

Quickly give me recorded IC50 for CC[C@H](C(=O)NC1CCCC1)N1Cc2ccnc3[nH]cc(c23)C1=O 79.4

----------
target: JAK2 (Homo sapiens); construct: purchased Invitrogen; assay: Assay for JAK2 Inhibition (phosphorylation of FAM-labeled substrate, Caliper LC-3000); type: biochemical; conditions: −log10(IC50), IC50 is the molar concentration at 50% inhibition; read-out: JAK2 pIC50 (converted)
Sequence (O60674 whole entry): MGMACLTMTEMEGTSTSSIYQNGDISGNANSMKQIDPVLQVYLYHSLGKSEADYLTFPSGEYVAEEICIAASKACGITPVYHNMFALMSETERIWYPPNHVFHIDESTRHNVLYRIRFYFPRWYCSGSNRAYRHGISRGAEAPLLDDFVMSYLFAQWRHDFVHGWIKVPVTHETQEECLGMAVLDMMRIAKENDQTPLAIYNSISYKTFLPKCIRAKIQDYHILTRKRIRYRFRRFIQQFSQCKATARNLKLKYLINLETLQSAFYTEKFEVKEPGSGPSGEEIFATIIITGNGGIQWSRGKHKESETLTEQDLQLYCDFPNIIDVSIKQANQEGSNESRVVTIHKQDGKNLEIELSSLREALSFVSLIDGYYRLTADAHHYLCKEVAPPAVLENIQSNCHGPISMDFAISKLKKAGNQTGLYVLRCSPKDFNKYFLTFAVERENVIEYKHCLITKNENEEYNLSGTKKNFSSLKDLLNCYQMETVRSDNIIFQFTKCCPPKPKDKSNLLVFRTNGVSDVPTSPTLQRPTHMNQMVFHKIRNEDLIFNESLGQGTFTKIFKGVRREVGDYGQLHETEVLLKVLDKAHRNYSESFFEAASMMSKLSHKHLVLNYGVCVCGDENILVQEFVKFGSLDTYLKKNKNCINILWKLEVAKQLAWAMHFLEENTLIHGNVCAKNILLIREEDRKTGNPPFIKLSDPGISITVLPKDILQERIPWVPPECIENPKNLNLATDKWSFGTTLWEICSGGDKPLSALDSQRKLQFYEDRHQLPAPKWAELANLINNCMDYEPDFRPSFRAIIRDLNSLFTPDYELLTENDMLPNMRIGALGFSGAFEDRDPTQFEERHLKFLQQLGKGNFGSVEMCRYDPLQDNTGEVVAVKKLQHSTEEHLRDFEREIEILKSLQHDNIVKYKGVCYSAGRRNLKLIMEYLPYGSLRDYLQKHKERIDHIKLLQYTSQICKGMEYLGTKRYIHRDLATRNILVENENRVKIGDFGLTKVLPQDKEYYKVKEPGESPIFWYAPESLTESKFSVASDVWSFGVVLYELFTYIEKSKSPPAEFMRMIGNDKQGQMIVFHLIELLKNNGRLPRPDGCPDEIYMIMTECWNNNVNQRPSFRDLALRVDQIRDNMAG
Would you mind telling me the reported IC50 of each entry?
Answers are plain numbers, in nM.

Worked set:
INSERT INTO measurements (molecule, numeric_result) VALUES
  ('CC(C)[C@H](C(=O)N1CCC(C#N)CC1)N1Cc2c(Cl)cnc3[nH]cc(c23)C1=O', 251),
  ('O=C1c2ccnc3[nH]cc(c23)CN1C(CCO)C1CC1 (centres unmarked)', 398),
  ('CC[C@H](C(=O)NCC1CCCO1)N1Cc2ccnc3[nH]cc(c23)C1=O (some centres unmarked)', 7940),
  ('CC(C)[C@H](C(=O)N1CCCC1)N1Cc2ccnc3[nH]cc(c23)C1=O', 1580),
  ('CC(C)[C@H](C(=O)N1CC(C(F)F)C1)N1Cc2c(F)cnc3[nH]cc(c23)C1=O', 398),
  ('CC[C@H](C(=O)N1CCC(C(C)(C)O)CC1)N1Cc2ccnc3[nH]cc(c23)C1=O', 12600),
  ('O=C(NC1CCCC1)[C@@H](C1CCCC1)N1Cc2ccnc3[nH]cc(c23)C1=O', 3160),
  ('CC[C@H](C(=O)NCC(C)C)N1Cc2ccnc3[nH]cc(c23)C1=O', 5010);

Provide the reported IC50 of each entry below, same order.
1. CC(C)[C@H](C(=O)Nc1cccc(C#N)c1)N1Cc2c(Cl)cnc3[nH]cc(c23)C1=O
2. CC[C@H](C(=O)N(C)CC(C)C)N1Cc2ccnc3[nH]cc(c23)C1=O
3. CC[C@H](C(=O)NCC(C)(C)O)N1Cc2ccnc3[nH]cc(c23)C1=O
4. O=C1c2ccnc3[nH]cc(c23)CN1C1CCNCC1
5. CC(C)[C@H](C(=O)NC1CCC(F)(F)C1)N1Cc2c(F)cnc3[nH]cc(c23)C1=O (some centres unmarked)
6. O=C(NC1CCCC1)[C@@H](C1CC1)N1Cc2ccnc3[nH]cc(c23)C1=O
7. CC(C)[C@H](C(=O)NC1CCS(=O)(=O)C1)N1Cc2c(F)cnc3[nH]cc(c23)C1=O (some centres unmarked)

1. 1000
2. 20000
3. 10000
4. 6310
5. 1580
6. 1580
7. 2000

Please supply IC50 for each of the following items, keeping them in order.
1. CC[C@@H](CC#N)NC(=O)[C@@H](C(C)C)N1Cc2c(Cl)cnc3[nH]cc(c23)C1=O
2. CC[C@H](C(=O)N1CCCC(C)C1)N1Cc2ccnc3[nH]cc(c23)C1=O (some centres unmarked)

1: 1580; 2: 20000
